- target_system: Retinal dehydrogenase 2 (Homo sapiens)
- experiment_summary: qHTS for Inhibitors of the Aldehyde Dehydrogenase Family (ALDH1A2) Confirmation screens (AID 2061314); also: nearly all actives have a fitted effect of over 65% in size
- experimental_setup: ALDH1A2 enzyme inhibition qHTS confirmation; series mostly up to 45.9 µM
Inconclusive results are not listed. Calls of active or inactive are those of the source. Calls follow the shape of the dose curve; as a rule, active = well fitted inhibition curve with a large enough effect; inconclusive = small, poorly fitted or top-dose-only effect; inactive = no such curve, though single readings can be large or run the other way.
Your reply should match one of these outcome classes. y (active), n (inactive)

# count of solved cases: 5
[[record]]
smiles_code = "O=S(=O)(c1cccc2c(I)cccc12)N1CCCNCC1"
assigned_label = "n"

[[record]]
smiles_code = "O=S1(=O)N=C(Oc2ccccc2F)c2ccccc21"
assigned_label = "n"

[[record]]
smiles_code = "Cc1ccc(C(=O)Nc2noc3ccccc23)cc1"
assigned_label = "n"

[[record]]
smiles_code = "Brc1c(NC2=NCCN2)ccc2nccnc12"
assigned_label = "y"

[[record]]
smiles_code = "COCC(=O)O[C@]1(CCN(C)CCCc2nc3ccccc3[nH]2)CCc2cc(F)ccc2[C@@H]1C(C)C"
assigned_label = "n"


Pending compound:
Task item: Recorded test outcome, item `COc1ccccc1-c1cc(-c2ccccc2OC)c2onc(C)c2n1`
Reply: n

---

- target_system: Cellular tumor antigen p53 (Homo sapiens)
- experiment_summary: Primary qHTS for small molecule compounds that upregulate eGFP-tagged delta133p53alpha (in N-terminal) cells. (AID 2060322);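 also: cells pre-induced with doxycycline then dosed without doxycycline; 0% = DMSO vehicle and 100% = reference activator; nearly all actives have a fitted effect of over 75% in size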
- experimental_setup: NCI-H358 eGFP-delta133p53alpha fluorescence, 24 h; stronger effect = higher value
Inconclusive results are not listed.
Entries and their activation
A number alone suffices; assume %.

Before answering, review these 10 worked examples.
[[record]]
molecule = "NC[C@H]1O[C@H](O[C@H]2[C@@H](O)[C@@H](O[C@H]3O[C@H](CO)[C@@H](O)[C@H](N)[C@@H]3O)[C@H](N)C[C@@H]2N)[C@H](N)C[C@H]1O"
observed_property = "activation"
measured_value = 25.5

[[record]]
molecule = "CCCCCCOC(=O)NC(=N)c1ccc(NCc2nc3cc(C(=O)N(CCC(=O)OCC)c4ccccn4)ccc3n2C)cc1"
observed_property = "activation"
measured_value = -36.8

[[record]]
molecule = "C[C@H]1O[C@H](O[C@H]2[C@H](O)[C@@H](O)[C@@H](O[C@H]3[C@H](O)[C@@H](O)C(O)O[C@H]3CO)O[C@H]2CO)[C@H](O)[C@@H](O)[C@H]1N[C@H]1C=C(CO)[C@@H](O)[C@H](O)[C@@H]1O (some centres not stated)"
observed_property = "activation"
measured_value = 140

[[record]]
molecule = "N[C@H](CCCP(=O)(O)O)C(=O)O"
observed_property = "activation"
measured_value = -16.6

[[record]]
molecule = "CN(C)CC1CCOC1(c1ccccc1)c1ccccc1 (configuration not stated)"
observed_property = "activation"
measured_value = -7

[[record]]
molecule = "CC[N+](CC)(CCNC(=O)C(=O)NCC[N+](CC)(CC)Cc1ccccc1Cl)Cc1ccccc1Cl"
observed_property = "activation"
measured_value = -9.6

[[record]]
molecule = "CC(C)(C)NS(=O)(=O)c1cncc(-c2cc(F)c3nc(N)nn3c2)c1"
observed_property = "activation"
measured_value = 5.36

[[record]]
molecule = "C=CC[C@@H]1C=C(C)C[C@H](C)C[C@H](OC)[C@H]2O[C@@](O)(C(=O)C(=O)N3CCCC[C@H]3C(=O)O[C@H](C(C)=C[C@@H]3CC[C@H](O)[C@H](OC)C3)[C@@H](C)[C@@H](O)CC1=O)[C@@H](C)C[C@@H]2OC"
observed_property = "activation"
measured_value = 23.1

[[record]]
molecule = "CC[C@H]1OC(=O)[C@H](C)[C@@H](O[C@H]2C[C@@](C)(OC)[C@@H](O)[C@H](C)O2)[C@H](C)[C@@H](O[C@H]2O[C@H](C)C[C@H](N(C)C)[C@H]2O)[C@](C)(O)C[C@@H](C)C(=O)[C@H](C)[C@@H](O)[C@]1(C)O"
observed_property = "activation"
measured_value = 9.67

[[record]]
molecule = "COc1cccc(-c2ccc([C@@H](Oc3cc(-c4ccc(C[C@H](N)C(=O)O)cc4)nc(N)n3)C(F)(F)F)cc2)c1"
observed_property = "activation"
measured_value = -13.4


Task item: State the recorded activation for this entry: `CO[C@@H]1[C@H](N(C)C(=O)c2ccccc2)C[C@H]2O[C@]1(C)n1c3ccccc3c3c4c(c5c6ccccc6n2c5c31)C(=O)NC4`
Reply: 25.1

Task item: Returns the measured activation for the input molecule. Input: `COC(=O)Nc1nc2ccc(C(=O)c3cccs3)cc2[nH]1`
Reply: -4.18

Task item: I would be grateful if you could share the reported activation for `Cc1onc(-c2c(Cl)cccc2Cl)c1CC(=O)NCc1ccc(OCC(F)(F)F)nc1` .
Reply: -9.07

Task item: What does the data say about its activation? Entry: `COc1cc(CCCO)ccc1O[C@@H]1O[C@H](CO)[C@@H](O)[C@H](O)[C@H]1O`
Reply: -16.1

Task item: Please give the measured activation for this molecule: `COc1ccccc1CN[C@H]1CCCN[C@H]1c1ccccc1`
Reply: -3.82

Task item: So what does the record say about activation for `Cc1[nH]c(/C=C2\C(=O)Nc3ccc(S(=O)(=O)N(C)c4cccc(Cl)c4)cc32)c(C)c1C(=O)N1CCN(C)CC1` ?
Reply: -19.1

Task item: Can you look up the measured activation of CC1(C)CC2C(O)C3=C(CC(C)(O)C2C1)C(=O)OC3 (configuration not stated) for me?
Reply: -6.87

---

Overview of recorded activation for various compounds
- target_system: Cellular tumor antigen p53 (Homo sapiens) (UniProt P04637)
- Sequence (P04637 whole entry, looked up): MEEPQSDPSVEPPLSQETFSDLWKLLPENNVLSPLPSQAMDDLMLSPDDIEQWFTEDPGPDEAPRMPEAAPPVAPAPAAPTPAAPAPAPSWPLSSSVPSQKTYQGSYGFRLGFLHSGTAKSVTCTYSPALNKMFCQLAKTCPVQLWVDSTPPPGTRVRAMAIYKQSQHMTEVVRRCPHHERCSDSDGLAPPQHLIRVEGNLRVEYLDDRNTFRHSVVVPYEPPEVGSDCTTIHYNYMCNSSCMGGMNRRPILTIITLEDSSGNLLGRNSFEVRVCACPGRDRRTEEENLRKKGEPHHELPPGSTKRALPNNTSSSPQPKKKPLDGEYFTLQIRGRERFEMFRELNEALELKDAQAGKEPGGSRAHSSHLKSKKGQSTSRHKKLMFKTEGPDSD
- experiment_summary: Primary qHTS for small molecule compounds that upregulate eGFP-tagged delta133p53alpha (in N-terminal) cells. (AID 2060322);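 also: cells pre-induced with doxycycline then dosed without doxycycline; 0% = DMSO vehicle and 100% = reference activator; nearly all actives have a fitted effect of over 75% in size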
- experimental_setup: NCI-H358 eGFP-delta133p53alpha fluorescence, 24 h; stronger effect = higher value
Records with an inconclusive call do not appear.
Answer in %, number only, no unit symbol.

[[record]]
compound = "COc1ccc(CNC(=O)c2sc3nc(C)cc(C)c3c2N)cc1"
measured_value = -8.11

[[record]]
compound = "CC(C)CCNc1ncccc1C(=O)N1CCN(Cc2ccccc2)CC1"
measured_value = -4.3


Task item: Recorded activation for CCC(C(C)O)n1ncn(-c2ccc(N3CCN(c4ccc(OCC5COC(Cn6cncn6)(c6ccc(F)cc6F)C5)cc4)CC3)cc2)c1=O (stereo not given) , please?
Reply: 5.25

Task item: Using the record for `Cn1c2ccc(NC(=O)c3ccccc3)cc2c(=O)n2nc(C(=O)O)cc12` , report its activation.
Reply: 8.59

Task item: I am curious: what activation value has been reported for `CN1C(=O)N(c2cc(Cl)cc(Cl)c2)C(=O)[C@@]1(C)Cc1ccc(Br)cc1` ?
Reply: 5

Task item: # activation lookup, item CCC1C(=O)N(C)c2cnc(Nc3ccc(C(=O)NC4CCC(N5CCN(CC6CC6)CC5)CC4)cc3OC)nc2N1C(C)C (stereo not given)
Reply: 37.2

Task item: What measured activation goes with `CC(C)Cc1ccc([C@H](C)C(=O)O)cc1` ?
Reply: -12.1

Task item: Which activation reading was recorded for the compound `CCCCCOc1ccccc1/C(=C\SC)n1ccnc1` ?
Reply: -16.7

Task item: // activation lookup, key: `O=[N+]([O-])c1cn2c(n1)OC[C@@H](OCc1ccc(OC(F)(F)F)cc1)C2`
Reply: 9.64

Task item: Return reported activation; argument: `CCCCCCCCCCCCCCC[C@H](O)[C@@H](N)CO`
Reply: 18.4

---

- experiment_summary: BET inhibitor-based combinations targeting novel dependencies in MECOM-rearranged (r) AML: AML-194 cell line (AID 2202237; also: nearly all actives have a fitted effect of over 40% in size)
- experimental_setup: AML-194 (MECOM-r AML) viability, CellTiter-Glo, 48 h; series mostly up to 46 µM
- Procedure: Ecotropic viral insertion site 1 (EVI1) is located on chromosome 3q26.2 as part of the MECOM (MDS and EVI1 complex) locus. […] A collection of 2480 mechanistically annotated dugs (MIPE v5.0) was used to screen four 3q26.2 rearranged AML cell lines and three non-3q26.2 rearranged AML cell lines. […] Cell viability was determined by luminescence based, Cell Titer Glo assay (Promega). […] Luminescence readings were taken using a Viewlux (PerkinElmer) with a 2 s exposure time per plate. […]
Inconclusive results are not listed. Calls of active or inactive are those of the source. Calls follow the shape of the dose curve; as a rule, active = well fitted inhibition curve with a large enough effect; inconclusive = small, poorly fitted or top-dose-only effect; inactive = flat fitted curve, though single readings scatter.
Outcome field: choose from True (active), False (inactive)

Reference set (5 entries):
[[record]]
molecule = "C[C@@H](NCCCc1cccc(C(F)(F)F)c1)c1cccc2ccccc12"
assigned_label = "True"

[[record]]
molecule = "CN(C)c1ccc2cc(C(=O)N[C@@H](CCCN=C(N)CCl)C(=O)NCc3ccccc3)ccc2c1"
assigned_label = "False"

[[record]]
molecule = "O=C(c1ccccc1)c1ccc2n1CCC2C(=O)O (centres undefined)"
assigned_label = "False"

[[record]]
molecule = "Cc1cnc(C(=O)O)c[n+]1[O-]"
assigned_label = "False"

[[record]]
molecule = "COc1ccc(-c2cc(=O)c3c(O)cc(O[C@@H]4O[C@H](CO[C@@H]5O[C@@H](C)[C@H](O)[C@@H](O)[C@H]5O)[C@@H](O)[C@H](O)[C@H]4O)cc3o2)cc1O"
assigned_label = "False"


Task item: Which outcome was entered for the molecule `CCn1c(-c2nonc2N)nc2cncc(CNC3CCNCC3)c21` in this test?
Reply: True

Task item: Outcome logged for `C=CC(=O)Nc1cccc(Oc2nc(Nc3ccc(N4CCN(C)CC4)cc3OC)ncc2Cl)c1` in this assay:
Reply: True

Task item: Please indicate how the test categorized `CC(C)(C)OC(=O)CN(Cc1ccc(Cl)cc1)Cc1ccc([N+](=O)[O-])s1` .
Reply: False

Task item: Tell me the assay call for `CN1C(C(=O)Nc2ccccn2)=C(O)c2ccccc2S1(=O)=O` please.
Reply: False

Task item: Which outcome was assigned to `Cc1cc(C(=O)Nc2cc(Oc3ccc4nc(NC(=O)C5CC5)cn4n3)ccc2C)n(C)n1` in this test?
Reply: True
